# Tested on: U2OS
# protocol: Multiplex assay against U2OS
# Assay type: toxicity, cell-based
# particulars: human, 48 h, 1 µM, compound concentration 1 uM, replicate 1
Kindly supply the reported Population Hoechst High Intensity Objects (%) values for the records listed here.
Give the number; % is assumed, so skip it.

Incoming: Quick check: Population Hoechst High Intensity Objects (%) of Cc1cc(NC(=O)NCCN2CCC(O)(Cc3ccccc3)CC2)c2ccccc2n1 [PALOSURAN] ?
Outgoing: 1

Incoming: Sample COc1cc(Nc2ncc3c(n2)-c2ccc(Cl)cc2C(c2c(F)cccc2OC)=NC3)ccc1C(=O)O [ALISERTIB] — what was its Population Hoechst High Intensity Objects (%)?
Outgoing: 3

Incoming: I am curious: what Population Hoechst High Intensity Objects (%) value has been reported for Cc1cc(=O)n(C)c2cc(N3C(=O)CC[C@H](NS(=O)(=O)CC(C)C)[C@H]3c3ccc(Cl)cc3)ccc12 ?
Outgoing: 1

Incoming: Population Hoechst High Intensity Objects (%) for CC(C)C[C@H](CO)Nc1nc(S[C@@H](C)c2ccccc2)nc2nc(N)sc12 [AZD-8797] ?
Outgoing: 2

Incoming: // query Population Hoechst High Intensity Objects (%) value for entry O=C(Nc1cc(-c2ccccc2)nn1-c1ccccc1F)c1ccc([N+](=O)[O-])cc1
Outgoing: 2

Incoming: # lookup: Population Hoechst High Intensity Objects (%) of CCCCC[C@H](O)/C=C/[C@H]1[C@H](O)CC(=O)[C@@H]1CCCCCCC(=O)O [ALPROSTADIL]
Outgoing: 2

Incoming: Item under review: CN1CCC(C(=O)c2cccc(NC(=O)c3c(F)cc(F)cc3F)n2)CC1 . Reported Population Hoechst High Intensity Objects (%)?
Outgoing: 2

Incoming: What does the data say about its Population Hoechst High Intensity Objects (%)? Entry: COc1cc2nc(N3CCN(C(=O)c4ccco4)CC3)nc(N)c2cc1OC.Cl [PRAZOSIN HYDROCHLORIDE]
Outgoing: 2

Incoming: Bench note: what Population Hoechst High Intensity Objects (%) did Cc1cc(O)c(-c2ccc([C@@H](C)CN(C)C)cc2)c2c1[nH]c(=O)c1sccc12 show?
Outgoing: 17

Incoming: What does the record list as Population Hoechst High Intensity Objects (%) for OCCCNc1cc(-c2ccnc(Nc3cccc(Cl)c3)n2)ccn1 ?
Outgoing: 16

Incoming: Which measured Population Hoechst High Intensity Objects (%) value corresponds to Cc1sc2c(c1C)C(c1ccc(Cl)cc1)=N[C@H](CC(=O)OC(C)(C)C)c1nnc(C)n1-2 ?
Outgoing: 1

Incoming: Would you mind telling me what Population Hoechst High Intensity Objects (%) value was observed for CN1CCN2c3ccccc3Cc3ccccc3C2C1.Cl (stereo not drawn) [MIANSERIN HYDROCHLORIDE] ?
Outgoing: 2

Incoming: What Population Hoechst High Intensity Objects (%) value was documented for this compound, COCCCN1CCC(NC(=O)c2cc(Cl)c(N)c3c2OCC3)CC1 [PRUCALOPRIDE] ?
Outgoing: 3

Incoming: Consider the compound shown here: COc1ccc2c(c1OCc1ccccc1)C[C@@H](C(=O)O)N(C(=O)C(c1ccccc1)c1ccccc1)C2 [OLODANRIGAN] What is its recorded Population Hoechst High Intensity Objects (%)?
Outgoing: 3

Incoming: Bench note: what Population Hoechst High Intensity Objects (%) did Nc1nc(CC(=O)Nc2ccc(CCNC[C@H](O)c3ccccc3)cc2)cs1 [MIRABEGRON] show?
Outgoing: 2

Incoming: Need Population Hoechst High Intensity Objects (%), item COc1cc(OC2CCN(C(C)=O)CC2)ccc1C(=O)N1CCC(N2C(=O)OCc3ccccc32)CC1
Outgoing: 3

Incoming: Name the reported Population Hoechst High Intensity Objects (%) value associated with the compound C[C@@H]1CC(=O)Nc2cccc(-c3ccc4c(c3)c(-c3cnn(C)c3)nn4C)c2N1
Outgoing: 1

Incoming: What value of measured Population Hoechst High Intensity Objects (%) is listed for COc1c(Nc2ccc(S(C)(=O)=O)nc2C)ncnc1OC1CCN(C(=O)OC(C)C)CC1 [ADP-597] ?
Outgoing: 2

----------
# Tested on: U2OS
# protocol: Multiplex assay against U2OS
# Assay type: toxicity, cell-based
# particulars: human, 24 h, 1 µM, compound concentration 1 uM, replicate 1
Assignment: determine reported Population Healthy Nuclei (%) for the given compounds.
The reply should contain only the number, in %.

Incoming: What value of Population Healthy Nuclei (%) has been recorded for this entry: CSc1nc(NC2CCCC2)c([N+](=O)[O-])c(NC2CCCC2)n1 [GS-39783]
Outgoing: 64

Incoming: Fill in the blank: the reported Population Healthy Nuclei (%) of COCCCN1CCC(NC(=O)c2cc(Cl)c(N)c3c2OCC3)CC1 [PRUCALOPRIDE] is ____.
Outgoing: 65

Incoming: Look up Population Healthy Nuclei (%): Nc1nc(-c2ccco2)c2cnn(Cc3ccccc3F)c2n1
Outgoing: 70

Incoming: What value of measured Population Healthy Nuclei (%) is listed for Cc1cc(=O)n(C)c2cc(N3C(=O)CC[C@H](NS(=O)(=O)CC(C)C)[C@H]3c3ccc(Cl)cc3)ccc12 ?
Outgoing: 68

Incoming: // lookup Population Healthy Nuclei (%) for CN(C)C(=O)Cn1cc(-c2ccc(-c3nnc4ccccn34)cc2)cn1
Outgoing: 71

Incoming: Could you tell me which Population Healthy Nuclei (%) is on file for O=c1ccc2ccc(OCCCCN3CCN(c4cccc5sccc45)CC3)cc2[nH]1 [BREXPIPRAZOLE] ?
Outgoing: 55

Incoming: I have this compound here, Cc1sc2c(c1C)C(c1ccc(Cl)cc1)=N[C@H](CC(=O)OC(C)(C)C)c1nnc(C)n1-2 , and I need its recorded Population Healthy Nuclei (%).
Outgoing: 69

Incoming: Entry S=C(NCCCc1c[nH]cn1)NCCCN(Cc1ccc(Cl)c(Cl)c1)c1ccc(Br)cn1 : reported Population Healthy Nuclei (%) = ?
Outgoing: 69

Incoming: Given the compound C[C@@H]1CC(=O)Nc2cccc(-c3ccc4c(c3)c(-c3cnn(C)c3)nn4C)c2N1 , what is its reported Population Healthy Nuclei (%)?
Outgoing: 71

----------
# Tested on: HEK-293T
# protocol: Multiplex assay against HEK293T
# Format: toxicity, cell-based
# particulars: human, 48 h, 10 µM, compound concentration 10 uM, replicate 2
For each of the molecules below, state its Population Fragmented Nuclei (%).
Respond numerically; units are % and should not be typed.

Incoming: Look up Population Fragmented Nuclei (%) for this molecule: COc1cc2nc(N3CCN(C(=O)COc4c(OC)cccc4C(C)C)CC3)nc(N)c2cc1OC.Cl.Cl
Outgoing: 17

Incoming: // returns reported Population Fragmented Nuclei (%) for input COc1cc(OC2CCN(C(C)=O)CC2)ccc1C(=O)N1CCC(N2C(=O)OCc3ccccc32)CC1
Outgoing: 12

Incoming: May I ask what Population Fragmented Nuclei (%) has been recorded for CCn1c(-c2nc3cc(C(=O)N4CCCC(N)C4)ccc3n2C)cc2ccccc21.Cl (configuration not stated) ?
Outgoing: 10

Incoming: What does the data say about its Population Fragmented Nuclei (%)? Entry: CC(C)C[C@H](CO)Nc1nc(S[C@@H](C)c2ccccc2)nc2nc(N)sc12
Outgoing: 15

Incoming: Fill in: Population Fragmented Nuclei (%) of CN1CCC(C(=O)c2cccc(NC(=O)c3c(F)cc(F)cc3F)n2)CC1 is ___
Outgoing: 10

Incoming: Give the measured Population Fragmented Nuclei (%) of CCCCCCNC(=O)Nc1ccc(S(=O)(=O)Nc2ccc(CCNC[C@H](O)COc3ccc(O)cc3)cc2)cc1 .
Outgoing: 13

Incoming: Can you look up the measured Population Fragmented Nuclei (%) of CCC(=O)OCC(=O)[C@@]1(OC(=O)CC)[C@@H](C)C[C@H]2[C@@H]3CCC4=CC(=O)C=C[C@]4(C)[C@@]3(Cl)[C@@H](O)C[C@@]21C [BECLOMETHASONE DIPROPIONATE] for me?
Outgoing: 12

Incoming: I am curious: what Population Fragmented Nuclei (%) value has been reported for O=C(O)CCC/C=C\CC1C(O)CC(O)C1/C=C/C(O)COc1cccc(Cl)c1 (configuration not stated) ?
Outgoing: 18

Incoming: Item OCCCNc1cc(-c2ccnc(Nc3cccc(Cl)c3)n2)ccn1 has what recorded Population Fragmented Nuclei (%)?
Outgoing: 25

Incoming: Which measured Population Fragmented Nuclei (%) value corresponds to COc1ccc2[nH]c(I)c(CCNC(C)=O)c2c1 ?
Outgoing: 15

Incoming: Consider the molecule Cc1cc(-c2ccc3c(c2)CC[C@H]3N2CC3(CCN(C(=O)Cc4cn5cc(C)sc5n4)CC3)C2)ncn1 and give its measured Population Fragmented Nuclei (%).
Outgoing: 13

Incoming: Which Population Fragmented Nuclei (%) value is on record for O=c1nc2[nH]c3ccccc3nc-2c(=O)[nH]1 ?
Outgoing: 14

Incoming: Which value of Population Fragmented Nuclei (%) has been reported for CCCCC[C@H](O)/C=C/[C@H]1[C@H](O)CC(=O)[C@@H]1CCCCCCC(=O)O in the records?
Outgoing: 14

Incoming: Name the recorded Population Fragmented Nuclei (%) for CSc1nc(NC2CCCC2)c([N+](=O)[O-])c(NC2CCCC2)n1 .
Outgoing: 13

Incoming: # Population Fragmented Nuclei (%) lookup, item CN(C)C/C=C/C(=O)Nc1ccc(C(=O)N2CCCC(Nc3ncc(Cl)c(-c4c[nH]c5ccccc45)n3)C2)cc1 (configuration not stated)
Outgoing: 47

Incoming: Item under review: COc1cc(Nc2ncc3c(n2)-c2ccc(Cl)cc2C(c2c(F)cccc2OC)=NC3)ccc1C(=O)O . Reported Population Fragmented Nuclei (%)?
Outgoing: 19

Incoming: Would you kindly share the measured Population Fragmented Nuclei (%) for Cc1sc2c(c1C)C(c1ccc(Cl)cc1)=N[C@H](CC(=O)OC(C)(C)C)c1nnc(C)n1-2 ?
Outgoing: 8

Incoming: Quick one: Population Fragmented Nuclei (%) of C=CCN1C[C@H](C(=O)N(CCCN(C)C)C(=O)NCC)C[C@@H]2c3cccc4[nH]cc(c34)C[C@H]21 ?
Outgoing: 10

Incoming: Entry CN(C)C(=O)Cn1cc(-c2ccc(-c3nnc4ccccn34)cc2)cn1 has what Population Fragmented Nuclei (%)?
Outgoing: 14

Incoming: // Population Fragmented Nuclei (%) lookup, key: O=c1ccc2ccc(OCCCCN3CCN(c4cccc5sccc45)CC3)cc2[nH]1
Outgoing: 14

Incoming: Quick one: Population Fragmented Nuclei (%) for O=C(Nc1cc(-c2ccccc2)nn1-c1ccccc1F)c1ccc([N+](=O)[O-])cc1 ?
Outgoing: 15

Incoming: What value of measured Population Fragmented Nuclei (%) is listed for CCc1nn2c(C)cc(C)nc2c1Cc1ccc(-c2nnc(C3CCNCC3)o2)cc1 ?
Outgoing: 12
